The reported measurements were obtained from patent US20240108702A1.

# assay-info: Single i.v. bolus PK in a vervet monkey (pilot safety study)
# Format: in vivo, vervet/African green monkey (Chlorocebus aethiops sabaeus)
# measurement-context: male, monkey, plasma, iv, single 3 mg/kg i.v. bolus
Where a SMILES comes first, the peptide text is derived from it. Bridges are numbered along the chain shown (N, C = ends).
measured-metric: AUC(0-inf) (ng·h/mL)
State the answer as a number, implicitly in ng·h/mL.

Challenge: Identify the reported AUC(0-inf) for the following entry. CC[C@H](C)[C@@H]1NC(=O)[C@@H]2CSSC[C@H](NC(=O)[C@H](CCCNC(=N)N)NC(=O)[C@@H]3CSSC[C@H](NC1=O)C(=O)N[C@@H]([C@@H](C)O)C(=O)N[C@@H](CCCNC(=N)N)C(=O)NCC(=O)N[C@@H](Cc1ccccc1)C(=O)N3)C(=O)N[C@@H](CC(C)C)C(=O)N[C@H]1CSSC[C@H](NC(=O)[C@H](C(C)C)NC(=O)CNC(=O)[C@H](CCCNC(=N)N)NC(=O)[C@H](CCCNC(=N)N)NC1=O)C(=O)N[C@@H](CCCNC(=N)N)C(=O)N2 [Peptide 1] (cyclo(GFCRCLCRRGVCRCICTR); disulfide 3-16, 5-14, 7-12)
Response given: 22100

###

# assay-info: in vivo
# measurement-context: both, Sprague-Dawley, rat, iv, 5 mg/kg
Where a SMILES comes first, the peptide text is derived from it. Bridges are numbered along the chain shown (N, C = ends).
measured-metric: Cmax

Challenge: Identify the reported Cmax for the following entry. CC[C@H](C)[C@@H]1NC(=O)[C@@H]2CSSC[C@H](NC(=O)[C@H](CCCNC(=N)N)NC(=O)[C@@H]3CSSC[C@H](NC1=O)C(=O)N[C@@H]([C@@H](C)O)C(=O)N[C@@H](CCCNC(=N)N)C(=O)NCC(=O)N[C@@H](Cc1ccccc1)C(=O)N3)C(=O)N[C@@H](CC(C)C)C(=O)N[C@H]1CSSC[C@H](NC(=O)[C@H](C(C)C)NC(=O)CNC(=O)[C@H](CCCNC(=N)N)NC(=O)[C@H](CCCNC(=N)N)NC1=O)C(=O)N[C@@H](CCCNC(=N)N)C(=O)N2 [Peptide 1] (cyclo(GFCRCLCRRGVCRCICTR); disulfide 3-16, 5-14, 7-12)
Response given: 7470 ng/mL

###

# assay-info: in vivo
# measurement-context: both, cynomolgus monkey, iv
Where a SMILES comes first, the peptide text is derived from it. Bridges are numbered along the chain shown (N, C = ends).
measured-metric: MTD at 7 days (mg/kg)
State the answer as a number, implicitly in mg/kg.

Challenge: Identify the reported MTD at 7 days for the following entry. CC[C@H](C)[C@@H]1NC(=O)[C@@H]2CSSC[C@H](NC(=O)[C@H](CCCNC(=N)N)NC(=O)[C@@H]3CSSC[C@H](NC1=O)C(=O)N[C@@H]([C@@H](C)O)C(=O)N[C@@H](CCCNC(=N)N)C(=O)NCC(=O)N[C@@H](Cc1ccccc1)C(=O)N3)C(=O)N[C@@H](CC(C)C)C(=O)N[C@H]1CSSC[C@H](NC(=O)[C@H](C(C)C)NC(=O)CNC(=O)[C@H](CCCNC(=N)N)NC(=O)[C@H](CCCNC(=N)N)NC1=O)C(=O)N[C@@H](CCCNC(=N)N)C(=O)N2 [Peptide 1] (cyclo(GFCRCLCRRGVCRCICTR); disulfide 3-16, 5-14, 7-12)
Response given: 15

###

# assay-info: in vivo
# measurement-context: both, cynomolgus monkey, iv, 3 mg/kg, CL, cynomolgus, 3 mg/kg i.v., Day 1, mean
Where a SMILES comes first, the peptide text is derived from it. Bridges are numbered along the chain shown (N, C = ends).
measured-metric: clearance (mL/min/kg)
State the answer as a number, implicitly in mL/min/kg.

Challenge: Identify the reported clearance for the following entry. CC[C@H](C)[C@@H]1NC(=O)[C@@H]2CSSC[C@H](NC(=O)[C@H](CCCNC(=N)N)NC(=O)[C@@H]3CSSC[C@H](NC1=O)C(=O)N[C@@H]([C@@H](C)O)C(=O)N[C@@H](CCCNC(=N)N)C(=O)NCC(=O)N[C@@H](Cc1ccccc1)C(=O)N3)C(=O)N[C@@H](CC(C)C)C(=O)N[C@H]1CSSC[C@H](NC(=O)[C@H](C(C)C)NC(=O)CNC(=O)[C@H](CCCNC(=N)N)NC(=O)[C@H](CCCNC(=N)N)NC1=O)C(=O)N[C@@H](CCCNC(=N)N)C(=O)N2 [Peptide 1] (cyclo(GFCRCLCRRGVCRCICTR); disulfide 3-16, 5-14, 7-12)
Response given: 4.78

###

# assay-info: in vivo
# measurement-context: both, Sprague-Dawley, rat, iv, 20 mg/kg
Where a SMILES comes first, the peptide text is derived from it. Bridges are numbered along the chain shown (N, C = ends).
measured-metric: Vd

Challenge: Identify the reported Vd for the following entry. CC[C@H](C)[C@@H]1NC(=O)[C@@H]2CSSC[C@H](NC(=O)[C@H](CCCNC(=N)N)NC(=O)[C@@H]3CSSC[C@H](NC1=O)C(=O)N[C@@H]([C@@H](C)O)C(=O)N[C@@H](CCCNC(=N)N)C(=O)NCC(=O)N[C@@H](Cc1ccccc1)C(=O)N3)C(=O)N[C@@H](CC(C)C)C(=O)N[C@H]1CSSC[C@H](NC(=O)[C@H](C(C)C)NC(=O)CNC(=O)[C@H](CCCNC(=N)N)NC(=O)[C@H](CCCNC(=N)N)NC1=O)C(=O)N[C@@H](CCCNC(=N)N)C(=O)N2 [Peptide 1] (cyclo(GFCRCLCRRGVCRCICTR); disulfide 3-16, 5-14, 7-12)
Response given: 0.758 L/kg

###

# assay-info: in vivo
# measurement-context: both, cynomolgus monkey, iv, 10 mg/kg/day, Vss, cynomolgus, 10 mg/kg/day i.v., Day 10, mean
Where a SMILES comes first, the peptide text is derived from it. Bridges are numbered along the chain shown (N, C = ends).
measured-metric: Vd (L/kg)
State the answer as a number, implicitly in L/kg.

Challenge: Identify the reported Vd for the following entry. CC[C@H](C)[C@@H]1NC(=O)[C@@H]2CSSC[C@H](NC(=O)[C@H](CCCNC(=N)N)NC(=O)[C@@H]3CSSC[C@H](NC1=O)C(=O)N[C@@H]([C@@H](C)O)C(=O)N[C@@H](CCCNC(=N)N)C(=O)NCC(=O)N[C@@H](Cc1ccccc1)C(=O)N3)C(=O)N[C@@H](CC(C)C)C(=O)N[C@H]1CSSC[C@H](NC(=O)[C@H](C(C)C)NC(=O)CNC(=O)[C@H](CCCNC(=N)N)NC(=O)[C@H](CCCNC(=N)N)NC1=O)C(=O)N[C@@H](CCCNC(=N)N)C(=O)N2 [Peptide 1] (cyclo(GFCRCLCRRGVCRCICTR); disulfide 3-16, 5-14, 7-12)
Response given: 0.624

###

# assay-info: in vivo
# measurement-context: both, Sprague-Dawley, rat, iv, 5 mg/kg/day
Where a SMILES comes first, the peptide text is derived from it. Bridges are numbered along the chain shown (N, C = ends).
measured-metric: Vd (L/kg)
State the answer as a number, implicitly in L/kg.

Challenge: Identify the reported Vd for the following entry. CC[C@H](C)[C@@H]1NC(=O)[C@@H]2CSSC[C@H](NC(=O)[C@H](CCCNC(=N)N)NC(=O)[C@@H]3CSSC[C@H](NC1=O)C(=O)N[C@@H]([C@@H](C)O)C(=O)N[C@@H](CCCNC(=N)N)C(=O)NCC(=O)N[C@@H](Cc1ccccc1)C(=O)N3)C(=O)N[C@@H](CC(C)C)C(=O)N[C@H]1CSSC[C@H](NC(=O)[C@H](C(C)C)NC(=O)CNC(=O)[C@H](CCCNC(=N)N)NC(=O)[C@H](CCCNC(=N)N)NC1=O)C(=O)N[C@@H](CCCNC(=N)N)C(=O)N2 [Peptide 1] (cyclo(GFCRCLCRRGVCRCICTR); disulfide 3-16, 5-14, 7-12)
Response given: 1.17

###

# assay-info: in vivo
# measurement-context: both, cynomolgus monkey, iv, 10 mg/kg, MRTinf, cynomolgus, 10 mg/kg i.v., Day 1, mean
Where a SMILES comes first, the peptide text is derived from it. Bridges are numbered along the chain shown (N, C = ends).
measured-metric: MRT inf (h)
State the answer as a number, implicitly in h.

Challenge: Identify the reported MRT inf for the following entry. CC[C@H](C)[C@@H]1NC(=O)[C@@H]2CSSC[C@H](NC(=O)[C@H](CCCNC(=N)N)NC(=O)[C@@H]3CSSC[C@H](NC1=O)C(=O)N[C@@H]([C@@H](C)O)C(=O)N[C@@H](CCCNC(=N)N)C(=O)NCC(=O)N[C@@H](Cc1ccccc1)C(=O)N3)C(=O)N[C@@H](CC(C)C)C(=O)N[C@H]1CSSC[C@H](NC(=O)[C@H](C(C)C)NC(=O)CNC(=O)[C@H](CCCNC(=N)N)NC(=O)[C@H](CCCNC(=N)N)NC1=O)C(=O)N[C@@H](CCCNC(=N)N)C(=O)N2 [Peptide 1] (cyclo(GFCRCLCRRGVCRCICTR); disulfide 3-16, 5-14, 7-12)
Response given: 4.4
